# System: HT-29
# method summary: Antiproliferative activity against human HT-29 cells assessed as inhibition of cell proliferation measured after 48 hrs by SRB assay
# Format: functional, cell-based
# run parameters: HT-29, 48 h
endpoint label: IC50 (µM)
Give just the numeric value; µM need not be written.

Solved entries (count: 2):
molecule	data value
COc1cc([C@@H]2c3cc4c(cc3[C@@H](O[C@@H]3O[C@@H]5CO[C@@H](C)O[C@H]5[C@H](O)[C@H]3O)[C@H]3COC(=O)[C@H]23)OCO4)cc(OC)c1O [ETOPOSIDE]	9
COc1cc([C@@H]2c3cc4c(cc3[C@@H](N=[N+]=[N-])[C@H]3COC(=O)[C@H]23)OCO4)cc(OC)c1O	0.6

Now take the following molecule into account.
Asked: Could you tell me which IC50 is on file for COc1cc([C@@H]2c3cc4c(cc3[C@@H](O)[C@H]3COC(=O)[C@H]23)OCO4)cc(OC)c1O [4'-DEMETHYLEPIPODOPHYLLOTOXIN] ?
Given back: 0.15

This collection of values is drawn from ChEMBL document CHEMBL5032537.
